system: Anopheles stephensi; test: Anopheles stephensi treated well plate contact test: knockdown and mortality; format: in vivo; conditions: Anopheles stephensi; test compound 0.2 ppm, without TFNA-AM, knockdown after 1 hour; read-out: Knock Down, without TFNA-AM
Overview of reported pest or weed control at 0.2 ppm across a group of compounds:
Answer in %, number only, no unit symbol.

CC(COc1ccc(Oc2ccccc2)cc1)Oc1ccccn1 (stereo not shown) [Pyriproxyfen]
0

Suppose we examine the compound CC(C)c1cc(Oc2ccccc2)cc(C(C)C)c1NC(=S)NC(C)(C)C [Diafenthiuron] ; what pest or weed control at 0.2 ppm value has been reported?
60

Could you do the same for Nc1nc(N)nc(NC2CC2)n1 [Cyromazine] , please?
0

Now the compound CCOC(=O)NCCOc1ccc(Oc2ccccc2)cc1 [Fenoxycarb]
0

Same for O=[N+]([O-])c1cc(C(F)(F)F)c(Cl)c([N+](=O)[O-])c1Nc1ncc(C(F)(F)F)cc1Cl [Fluazinam]
0

Do the same for COP(=S)(OC)Oc1ccc([N+](=O)[O-])c(C)c1 [Fenitrothion] please
0

====

system: Anopheles stephensi; assay: Anopheles stephensi treated well plate contact test: knockdown and mortality; type: in vivo; settings: test compound 2 ppm plus 2 ppm TFNA-AM, after 48 hours
Use 1 (yes) when the recorded mortality % 48, with TFNA-AM is no lower than 60%; use 0 (no) when it is lower.

CC1(C)C(C=C(Cl)Cl)C1C(=O)OC(C#N)c1cccc(Oc2ccccc2)c1 (stereo not drawn)
1 (yes)
Cc1ccc(/N=C/N(C)/C=N/c2ccc(C)cc2C)c(C)c1
0 (no)

Moving on to another compound below.
I'd appreciate it if you could say whether N#Cc1ccc(CC(=NNC(=O)Nc2ccc(OC(F)(F)F)cc2)c2cccc(C(F)(F)F)c2)cc1 (mixture of isomers) has mortality % 48, with TFNA-AM at least equal to 60%.
1 (yes)

====

The entries below are paired with their reported mortality % 24, with TFNA-AM.
system: Anopheles stephensi; test: Anopheles stephensi treated well plate contact test: knockdown and mortality; format: in vivo; conditions: test compound 20 ppm plus 2 ppm TFNA-AM, after 24 hours
# unit: % | format: bare number

CC(COc1ccc(Oc2ccccc2)cc1)Oc1ccccn1 (stereo not drawn)
60

Look up mortality % 24, with TFNA-AM: "CC(C)N1C(=O)N(c2ccccc2)CS/C1=N\C(C)(C)C"
100

Param item: CCOC(=O)CC(SP(=S)(OC)OC)C(=O)OCC (stereo not drawn)
100

// repeat for "CCOc1ccc(C(C)(C)COCc2cccc(Oc3ccccc3)c2)cc1" and report
100

Ok, now N#Cc1nn(-c2c(Cl)cc(C(F)(F)F)cc2Cl)c(N)c1[S+]([O-])C(F)(F)F (stereo not drawn)
100

Now consider Cc1cc(C(F)(C(F)(F)F)C(F)(F)F)ccc1NC(=O)c1cccc(I)c1C(=O)NC(C)(C)CS(C)(=O)=O [Flubendiamide] and answer again.
80

Same thing, different molecule: "O=c1c(-c2cccc(C(F)(F)F)c2)c([O-])[n+](Cc2cncnc2)c2ccccn12"
90

Can you check "Nc1nc(N)nc(NC2CC2)n1" next?
60

Same for "CNC(=O)Oc1ccccc1OC(C)C"
100

Repeat for the following molecule: "CC(C)c1cc(Oc2ccccc2)cc(C(C)C)c1NC(=S)NC(C)(C)C"
100

For "COP(=S)(OC)Oc1ccc([N+](=O)[O-])c(C)c1" then?
100

Could you do the same for "CO/C=C(/C(=O)OC)c1ccccc1Oc1cc(C(F)(F)F)ccn1" , please?
100

====

system: Anopheles stephensi; assay: Anopheles stephensi treated well plate contact test: knockdown and mortality; assay type: in vivo; conditions: test compound 20 ppm plus 2 ppm TFNA-AM, after 48 hours
Each record here notes measured mortality % 48, with TFNA-AM.

Cc1c(COC(=O)[C@@H]2[C@H](/C=C(\Cl)C(F)(F)F)C2(C)C)cccc1-c1ccccc1 (racemic)
100%
O=[N+]([O-])NC1=NCCN1Cc1ccc(Cl)nc1
100%
O=C1C=C(N(Cc2ccc(Cl)nc2)CC(F)F)CO1
60%
C/C=C(\C)C(=O)O[C@H]1C[C@@H](OC(C)=O)[C@@]2(C(=O)OC)CO[C@H]3[C@@H](O)[C@@](C)([C@]45O[C@@]4(C)[C@H]4C[C@@H]5O[C@@H]5OC=C[C@@]54O)[C@H]4[C@]1(CO[C@]4(O)C(=O)OC)[C@@H]32
40%

Would you mind telling me what mortality % 48, with TFNA-AM value was observed for "CO/C=C(/C(=O)OC)c1ccccc1Oc1ncc(C(F)(F)F)s1" ?
100%

====

system: Anopheles stephensi; experiment: Anopheles stephensi treated well plate contact test: knockdown and mortality; assay type: in vivo; settings: Anopheles stephensi; test compound 2 ppm, without TFNA-AM, knockdown after 1 hour; read-out: Knock Down, without TFNA-AM
Reported pest or weed control at 2 ppm values for the following compounds.
The number alone won't do; follow it with the unit.

Below: 5 compounds and their reported pest or weed control at 2 ppm.
C/C=C(\C)C(=O)O[C@H]1C[C@@H](OC(C)=O)[C@@]2(C(=O)OC)CO[C@H]3[C@@H](O)[C@@](C)([C@]45O[C@@]4(C)[C@H]4C[C@@H]5O[C@@H]5OC=C[C@@]54O)[C@H]4[C@]1(CO[C@]4(O)C(=O)OC)[C@@H]32 [Azadirachtin]
0%
CC(COc1ccc(Oc2ccccc2)cc1)Oc1ccccn1 (stereo not shown) [Pyriproxyfen]
0%
CC(C)N1C(=O)N(c2ccccc2)CS/C1=N\C(C)(C)C [Buprofezin]
0%
CO/C=C(/C(=O)OC)c1ccccc1Oc1nc(C(C)(C)C)ns1 [Compound 48]
60%
CCOc1cc(C(C)(C)C)ccc1C1COC(c2c(F)cccc2F)=N1 (stereo not shown) [Etoxazole]
0%

Recorded pest or weed control at 2 ppm for O=[N+]([O-])NC1=NCCN1Cc1ccc(Cl)nc1 [Imidacloprid] , please?
0%

Quick one: CO/C=C(/C(=O)OC)c1ccccc1Oc1cc(C(F)(F)F)ccn1 [Compound 49]
0%

Now try CCOc1ccc(C(C)(C)COCc2cccc(Oc3ccccc3)c2)cc1 [Etofenprox] .
0%

Can you check CCC(Nc1ncnc(C)c1Cl)c1ccc(OC(F)F)cc1 (stereo not shown) [Diflumetorim] next?
30%

Please answer likewise for Nc1nc(N)nc(NC2CC2)n1 [Cyromazine]
0%

Check CCOC(=O)NCCOc1ccc(Oc2ccccc2)cc1 [Fenoxycarb] too.
0%

How about N#Cc1nn(-c2c(Cl)cc(C(F)(F)F)cc2Cl)c(N)c1[S+]([O-])C(F)(F)F (stereo not shown) [Fipronil] ?
0%

What about O=[N+]([O-])c1cc(C(F)(F)F)c(Cl)c([N+](=O)[O-])c1Nc1ncc(C(F)(F)F)cc1Cl [Fluazinam] ?
0%

How about this compound: CCc1nn(C)c(C(=O)NCc2ccc(C(C)(C)C)cc2)c1Cl [Tebufenpyrad]
0%

And the next one, Cc1c(COC(=O)[C@@H]2[C@H](/C=C(\Cl)C(F)(F)F)C2(C)C)cccc1-c1ccccc1 (racemic) [Bifenthrin] ?
100%

Next entry: CO/C=C(/C(=O)OC)c1ccccc1COc1cc(C(F)(F)F)nc(OC(C)C)n1 [Fluacrypyrim]
0%

Query OC(c1ccc(Cl)cc1)(c1ccc(Cl)cc1)C(Cl)(Cl)Cl [Dicofol] next
0%

Also CNC(=O)Oc1ccccc1OC(C)C [Propoxur] ?
100%

Try this compound too: CN/C(=N\[N+](=O)[O-])NCc1cnc(Cl)s1 [Clothianidin]
0%

Queued: CON=C(C(=O)OC)c1ccccc1CON=C(C)c1cccc(C(F)(F)F)c1 [Trifloxystrobin]
50%

Item: CCOC(=O)CC(SP(=S)(OC)OC)C(=O)OCC (stereo not shown) [Malathion]
40%

Try the compound CC(c1ccc(C(F)(F)F)nc1)S(C)(=O)=NC#N (stereo not shown) [Sulfoxaflor]
0%

Again, but for Cc1ccc(/N=C/N(C)/C=N/c2ccc(C)cc2C)c(C)c1 [Amitraz]
0%

Cool, now CN1COCN(Cc2cnc(Cl)s2)/C1=N\[N+](=O)[O-] [Thiamethoxam]
0%

How about this compound: CO/C=C(/C(=O)OC)c1ccccc1Oc1ncc(C(F)(F)F)s1 [Compound 54]
0%

Then what about the compound CC1(C)C(C=C(Cl)Cl)C1C(=O)OC(C#N)c1cccc(Oc2ccccc2)c1 (stereo not shown) [Cypermethrin] ?
100%

Same again, this time with CNC(=O)Oc1cccc2c1OC(C)(C)O2 [Bendiocarb]
100%

How about COP(=S)(OC)Oc1ccc([N+](=O)[O-])c(C)c1 [Fenitrothion] ?
0%

====

system: Anopheles stephensi; assay: Anopheles stephensi treated well plate contact test: knockdown and mortality; type: in vivo; conditions: test compound 2 ppm plus 2 ppm TFNA-AM, after 48 hours
measured quantity: mortality % 48, with TFNA-AM (%)
Answer with a number only, understood to be in %.

Reference set (3 entries):
Cc1c(COC(=O)[C@@H]2[C@H](/C=C(\Cl)C(F)(F)F)C2(C)C)cccc1-c1ccccc1 (racemic)
100
CN/C(=N\[N+](=O)[O-])NCc1cnc(Cl)s1
100
CC(C)=C[C@@H]1[C@@H](C(=O)O[C@H](C#N)c2cccc(Oc3ccccc3)c2)C1(C)C (relative stereo) [d-d, trans cyphenothrin]
100

API: the following record is the query input.
I'd like to know its mortality % 48, with TFNA-AM. The compound in question is "CNC(=O)Oc1cccc2c1OC(C)(C)O2"
100

Source listed as patent US20260206755A1.
